Biological target: Adenosine receptor A2b (Homo sapiens)
Assay: Antagonist activity at human A2B adenosine receptor expressed in CHO cells assessed as inhibition of NECA-induced cAMP accumulation at 10 uM after 20 mins
Type: functional, cell-based
measured parameter: inhibition (%)

Please review the entries below; each comes with its answer.
| compound | experimental target | quantitative result |
| --- | --- | --- |
| Cc1cccc(-c2n[nH]c(NC(=O)C(C)Oc3ccccc3)n2)c1 (stereo not drawn) | Adenosine receptor A2b (Homo sapiens) | 5 |
| Cc1cccc(OCC(=O)Nc2nc(-c3ccccc3)n[nH]2)c1 | Adenosine receptor A2b (Homo sapiens) | 8 |
| Cc1cccc(C)c1OCC(=O)Nc1nc(-c2ccccc2)n[nH]1 | Adenosine receptor A2b (Homo sapiens) | 43 |

a: COc1ccccc1NC(=O)Nc1nc(-c2ccccc2)n[nH]1
b: COc1ccc(CC(=O)Nc2nc(-c3ccccc3)n[nH]2)cc1
c: C[C@@H](Oc1ccccc1F)C(=O)Nc1nc(-c2ccccc2)n[nH]1
d: CC(C)(Oc1ccc(Cl)cc1)C(=O)Nc1nc(-c2ccccc2)n[nH]1
e: Cc1ccccc1-c1n[nH]c(NC(=O)[C@@H](C)Oc2ccccc2)n1
**Query** Order field: inhibition | Direction: descending (largest first) Please list each label once, in the requested order.
**Result** c, a, d, e, b
(c: 31%, a: 10%, d: 6%, e: -3%, b: -6%)

I: O=C(Nc1nc(-c2ccccc2)n[nH]1)C1CCCO1 (stereo not drawn)
II: Cc1ccc(-c2n[nH]c(NC(=O)COc3ccccc3F)n2)cc1
**Query** # query: argmin of inhibition over I and II Give the label under which the chosen entry appears.
**Result** I
(I: -7%, II: 11%)

a: O=C(CCc1ccccc1)Nc1nc(-c2ccccc2)n[nH]1
b: O=C(Nc1nc(-c2ccccc2)n[nH]1)c1ccccc1
c: O=C(COc1ccccc1)Nc1nc(-c2ccccc2)n[nH]1
d: CC(=O)Nc1nc(-c2ccccc2)n[nH]1
**Query** Put the items in sequence by inhibition, from largest down. The labels, placed in the requested order, form the answer.
**Result** b, a, c, d
(b: 72%, a: 40%, c: 16%, d: 10%)

I: C[C@@H](Sc1ccccc1)C(=O)Nc1nc(-c2ccccc2)n[nH]1
II: Cc1ccccc1OCC(=O)Nc1nc(-c2ccccc2)n[nH]1
III: COc1ccccc1OCC(=O)Nc1nc(-c2ccc(C)cc2)n[nH]1
**Query** Hey, quick one: sort these by inhibition, low to high? Answer by naming the labels in the order asked.
**Result** III, II, I
(III: -10%, II: 13%, I: 21%)
